Assay remarks: GSH reactivity screen (mercury orange fluorescence, 96-well)
Assay type: physicochemical
Conditions used: test compound with 200 μM GSH, 1 h at room temperature; no metabolic activation, no glutathione transferase
Quantity name: result in the GSH screen (in words)

CC(=O)Nc1ccc(O)cc1 ... non-reactive
N#Cc1ccc(Cl)c([N+](=O)[O-])c1 ... non-reactive
O=[N+]([O-])c1cc(O)ccc1Cl ... non-reactive
Cc1cc(C(C)(C)C)c(O)c(C(C)(C)C)c1 [Butylated hydroxytoluene] ... non-reactive
